- assayInfo: Antioxidant activity assessed as inhibition of AAPH-induced linoleic acid lipid peroxidation at 1 x 10^-4 M by UV-absorbance method relative to control
- Assay type: functional
Give t when the value for inhibition is at least 80%. Give f when it is less.

COc1cc(NC(C)CCCNC(=O)NNC(=O)Nc2cc(C(F)(F)F)cc(C(F)(F)F)c2)c2ncccc2c1 (centres undefined)
f

Hi team, for COc1cc(NC(C)CCCNC(=O)NNC(=O)Nc2cccc(Cl)c2)c2ncccc2c1 (centres undefined) , is the recorded inhibition at or above 80%? f

Hello, I need to know if COc1cc(NC(C)CCCNC(=O)Nc2cccc(C(F)(F)F)c2)c2ncccc2c1 (centres undefined) has measured inhibition not below 80%. Thanks! f
